Provenance of the data: patent US20260167721A1

# targetDesc: T1, recombinant human CD3 epsilon/gamma heterodimer (human, UniProt P07766 23-126; P09693 23-116)
# T1 construct: Recombinant protein in solution (200-50 nM) in the Octet assay; also called hCD3 E/G
# T1 sequence (P07766 23-126, chain 1 of 2): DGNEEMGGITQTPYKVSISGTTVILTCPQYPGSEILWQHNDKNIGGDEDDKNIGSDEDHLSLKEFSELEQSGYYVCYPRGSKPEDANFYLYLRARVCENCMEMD
# T1 sequence (P09693 23-116, chain 2 of 2): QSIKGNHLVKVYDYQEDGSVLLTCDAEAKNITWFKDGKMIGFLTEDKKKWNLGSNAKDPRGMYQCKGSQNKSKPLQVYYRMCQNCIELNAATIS
# assaySummary: Octet BLI, mAb on FAB2G sensor, hCD3 E/G 200-50 nM; R^2 0.99
assayReadout: koff

binder	koff
ABL-CD3-26 (antibody, V domains shown, Chimeric hybridoma mAb: human V, CH1, upper hinge; mouse middle hinge, CH2, CH3) VH: EVHLVESGGGLVKPGGSLRLSCAASGFTFSSYSMNWVRQAPGKGLEWVSSISSSSTYIYYADSVKGRFTISRDNAKNSLYLQMNSLRAEDTAVYYCAREPRTLGMDYWGQGILVTVSS VL: NFMLTQPHSVSESPGKTVTISCTRSSGSIASNYVQWYQQRPGSSPTTVIYEDNHRPSGVPDRFSGSIDSSSNSASLTISGLKTEDEADYFCQSFDSSNRVFGGGTKLTVL	0.00123 s⁻¹

Would you kindly share the measured koff for ABL-CD3-24 (antibody, V domains shown, Chimeric hybridoma mAb: human V, CH1, upper hinge; mouse middle hinge, CH2, CH3) VH: EVQLVESGGGLVKPGGSLRLSCVASGFTFSSYTMNWVRQAPGKGLEWVSSISRSGSYKYNADSVKGRFTISRDNAKNSLYLQMNSLRVEDTAVYYCAREPPTLGMDYWGQGTLVTVSS VL: NFMLTQPHSVSESPGKTVTISCTRSSGSIASNYVQWYQQRPGSSPTTVIYEDNQRPSGVPDRFSGSIDSSSNSASLTISGLKTEDEADYYCQSFYSSNRVFGGGTELTVL ? 0.00134 s⁻¹
